Sourced from patent US20250282757A1

Target: GLP-1R (Homo sapiens, UniProt P43220)
Sequence (P43220 24-463): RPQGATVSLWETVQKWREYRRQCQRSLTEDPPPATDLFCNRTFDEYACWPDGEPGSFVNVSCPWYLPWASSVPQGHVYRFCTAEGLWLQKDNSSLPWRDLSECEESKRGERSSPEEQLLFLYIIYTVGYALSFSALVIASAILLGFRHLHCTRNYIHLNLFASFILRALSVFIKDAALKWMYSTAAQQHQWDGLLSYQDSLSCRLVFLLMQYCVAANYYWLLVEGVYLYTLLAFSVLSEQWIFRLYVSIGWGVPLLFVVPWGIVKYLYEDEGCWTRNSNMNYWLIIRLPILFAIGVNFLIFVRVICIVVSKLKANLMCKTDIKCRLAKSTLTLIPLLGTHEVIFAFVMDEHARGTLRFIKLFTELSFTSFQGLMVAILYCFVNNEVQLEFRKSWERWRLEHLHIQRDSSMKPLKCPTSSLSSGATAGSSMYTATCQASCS
Experiment: Agonist activity on GLP-1R, HTRF cAMP detection in stably transfected GLP-1R/HEK293 cells
Details: 30 min incubation
Method: Detection of Agonist Activity of the Test Compounds on GLP-1R • 1) The test compound was dissolved in DMSO and diluted 4-fold with Bravo for a total of 10 concentration gradients (the starting concentration was 1 mM). […] HBSS (10 mL) pre-warmed at 37° C. was added, mixed gently, and centrifuged at 1000 rpm for 5 minutes. […] The plate was put into the EnVision microplate reader to read the values of OD665 nm and OD615 nm.
Readout: pEC50
One number for each entry, as −log10 of the molar value.

molecule="CC(C)n1cncc1Cn1c(CN2CCC(Oc3cccc(COc4ccc(C#N)cc4F)c3)CC2)nc2ccc(C(=O)O)cc21 [Compound C32]" reported_measurement=9.11
molecule="Cn1c(CN2CCC(Oc3cccc(COc4ccc(Cl)cc4F)n3)CC2)nc2ccc(C(=O)O)cc21 [Compound C22]" reported_measurement=7.52
molecule="N#CCC1(Cn2c(CN3CCC(Oc4ccc(F)c(OCc5ccc(Cl)cc5F)n4)CC3)nc3c(F)cc(C(=O)O)cc32)CC1 [Compound S41]" reported_measurement=7.66
molecule="CCn1cncc1Cn1c(CN2CCC(Oc3cccc(COc4ccc(Cl)cc4F)n3)CC2)nc2ccc(C(=O)O)cc21 [Compound 43]" reported_measurement=9.96
molecule="CCn1cncc1Cn1c(Cc2ccc(Oc3cccc(COc4ccc(C#N)cc4F)n3)cc2)nc2ccc(C(=O)O)cc21 [Compound C28]" reported_measurement=8.30
molecule="O=C(O)c1ccc2nc(CN3CCC(Oc4cccc(COc5ccc(Br)cc5F)n4)CC3)n(Cc3cncn3CC3CC3)c2c1 [Compound C19]" reported_measurement=8.97
molecule="N#Cc1ccc(OCc2cccc(OC3CCN(Cc4nc5ccc(C(=O)O)cc5n4CC4COC4)CC3)n2)c(F)c1 [Compound C82]" reported_measurement=8.13
molecule="CCn1cncc1Cn1c(CN2CCC(Oc3cccc(OCc4ccc(C#N)cc4F)c3)CC2)nc2ccc(C(=O)O)cc21 [Compound S23]" reported_measurement=8.83
molecule="CC1(Cn2c(CN3CCC(Oc4cccc(COc5ccc(C#N)cc5F)n4)CC3)nc3ccc(C(=O)O)cc32)COC1 [Compound C5]" reported_measurement=8.62
molecule="N#Cc1ccc(COc2cccc(OC3CN(Cc4nc5ccc(C(=O)O)cc5n4C[C@@H]4CCO4)C3)n2)c(F)c1 [Compound S3]" reported_measurement=5.66

Could I get pEC50 for every one of these entries?
1. N#Cc1ccc(OCc2cccc(OC3CCN(Cc4nc5ccc(C(=O)O)cc5n4Cc4cncn4CC4CC4)CC3)c2)c(F)c1 [Compound C20]
2. N#Cc1ccc(COc2cccc(OC3CCN(Cc4nc5ccc(C(=O)O)cc5n4C[C@@H]4CCO4)CC3)n2)c(F)c1 [Compound S2]

[9.37, 8.25]

Could I get pEC50 for every one of these entries?
1. CCn1cncc1Cn1c(CN2CCC(Oc3cccc(COc4ccc(C#N)cc4F)n3)CC2)nc2c(F)cc(C(=O)O)cc21 [Compound 2]
2. CCN1C(=O)CCC1Cn1c(CN2CCC(Oc3cccc(COc4ccc(C#N)cc4F)n3)CC2)nc2ccc(C(=O)O)cc21 (stereo not drawn) [Compound C34]
3. C#Cc1ccc(OCc2cccc(OC3CCN(Cc4nc5ccc(C(=O)O)cc5n4Cc4cncn4C(C)C)CC3)c2)c(F)c1 [Compound C29]
4. CCn1cncc1Cn1c(Cc2ccc(Oc3cccc(COc4ccc(Cl)cc4F)n3)cc2)nc2ccc(C(=O)O)cc21 [Compound C24]
5. N#Cc1ccc(OCc2cccc(COC3CCN(Cc4nc5ccc(C(=O)O)cc5n4C[C@@H]4CCO4)CC3)n2)c(F)c1 [Compound C1]
6. O=C(O)c1ccc2nc(CN3CCC(Oc4cccc(CSc5ccc(Cl)cc5F)n4)CC3)n(C[C@@H]3CCO3)c2c1 [Compound C8]
7. CCn1cncc1Cn1c(CN2CCC(Oc3ccc(F)c(COc4ccc(C#N)cc4F)n3)CC2)nc2ccc(C(=O)O)cc21 [Compound 3]

[10.28, 7.96, 8.17, 8.78, 5.92, 7.59, 9.50]

Could I get pEC50 for every one of these entries?
1. N#Cc1ccc(COc2cccc(Oc3cc(F)c(Cc4nc5c(F)cc(C(=O)O)cc5n4C[C@@H]4CCO4)cc3F)n2)c(F)c1 [Compound C43]
2. CC(C)n1cncc1Cn1c(CN2CCC(Oc3cccc(COc4ccc(Br)cc4F)c3)CC2)nc2ccc(C(=O)O)cc21 [Compound C30]
3. N#Cc1ccc(SCc2cccc(OC3CCN(Cc4nc5ccc(C(=O)O)cc5n4C[C@@H]4CCO4)CC3)n2)c(F)c1 [Compound C10]

1: 8.28; 2: 8.23; 3: 8.38

Could I get pEC50 for every one of these entries?
1. CCn1cncc1Cn1c(CN2CCC(Oc3cccc(COc4ccc(C#N)cc4F)c3)CC2)nc2ccc(C(=O)O)cc21 [Compound 13]
2. N#Cc1ccc(COc2cccc(OC3CCN(Cc4nc5ccc(C(=O)O)cc5n4C[C@@H]4CCO4)CC3)c2)c(F)c1 [Compound S5]
3. N#CCC1(Cn2c(CN3CCC(Oc4cccc(CSc5ccc(Cl)cc5F)n4)CC3)nc3ccc(C(=O)O)cc32)CC1 [Compound C7]
4. C#Cc1ccc(OCc2cccc(OC3CCN(Cc4nc5ccc(C(=O)O)cc5n4C[C@@H]4CCO4)CC3)n2)c(F)c1 [Compound C15]
5. N#Cc1ccc(COc2cccc(OCC3CCN(Cc4nc5ccc(C(=O)O)cc5n4C[C@@H]4CCO4)CC3)n2)c(F)c1 [Compound S1]

9.94
7.81
7.63
9.09
5.85
